Reference for the values: BigSolDB 2.1

protocol_conditions: in cyclohexanone, 299.15 K
outcome_measure: solubility (mole fraction)

Looking for the measured solubility (mole fraction) of "O=C(O)c1ccccc1" , can you help?
0.221

----------
protocol_conditions: in diethylene glycol, 305.15 K
outcome_measure: solubility (mole fraction)

Looking for the measured solubility (mole fraction) of "O=C(O)c1ccccc1" , can you help?
0.148

----------
protocol_conditions: in DMAc, 302.15 K
outcome_measure: solubility (mole fraction)

Looking for the measured solubility (mole fraction) of "O=C(O)c1ccccc1" , can you help?
0.475

----------
protocol_conditions: in n-octane, 334.15 K
outcome_measure: solubility (mole fraction)
Give the figure by itself; no unit, no explanation.

Looking for the measured solubility (mole fraction) of "O=C(O)c1ccccc1" , can you help?
0.0578

----------
protocol_conditions: in o-xylene, 297.15 K
outcome_measure: solubility (mole fraction)
Give the figure by itself; no unit, no explanation.

Looking for the measured solubility (mole fraction) of "O=C(O)c1ccccc1" , can you help?
0.0655

----------
protocol_conditions: in propionic acid, 294.65 K
outcome_measure: solubility (mole fraction)

Looking for the measured solubility (mole fraction) of "O=C(O)c1ccccc1" , can you help?
0.149

----------
protocol_conditions: in n-octane, 325.15 K
outcome_measure: solubility (mole fraction)

Looking for the measured solubility (mole fraction) of "O=C(O)c1ccccc1" , can you help?
0.0365

----------
protocol_conditions: in m-xylene, 334.15 K
outcome_measure: solubility (mole fraction)
Give the figure by itself; no unit, no explanation.

Looking for the measured solubility (mole fraction) of "O=C(O)c1ccccc1" , can you help?
0.246

----------
protocol_conditions: in propionic acid, 300.15 K
outcome_measure: solubility (mole fraction)

Looking for the measured solubility (mole fraction) of "O=C(O)c1ccccc1" , can you help?
0.171

----------
protocol_conditions: in decalin, 337.05 K
outcome_measure: solubility (mole fraction)
Give the figure by itself; no unit, no explanation.

Looking for the measured solubility (mole fraction) of "O=C(O)c1ccccc1" , can you help?
0.0887

----------
protocol_conditions: in decalin, 296.15 K
outcome_measure: solubility (mole fraction)

Looking for the measured solubility (mole fraction) of "O=C(O)c1ccccc1" , can you help?
0.0147

----------
protocol_conditions: in sulfolane, 305.15 K
outcome_measure: solubility (mole fraction)
Give the figure by itself; no unit, no explanation.

Looking for the measured solubility (mole fraction) of "O=C(O)c1ccccc1" , can you help?
0.122

----------
protocol_conditions: in p-xylene, 302.15 K
outcome_measure: solubility (mole fraction)
Give the figure by itself; no unit, no explanation.

Looking for the measured solubility (mole fraction) of "O=C(O)c1ccccc1" , can you help?
0.0819

----------
protocol_conditions: in n-octane, 342.65 K
outcome_measure: solubility (mole fraction)
Give the figure by itself; no unit, no explanation.

Looking for the measured solubility (mole fraction) of "O=C(O)c1ccccc1" , can you help?
0.0865

----------
protocol_conditions: in ethylene glycol, 291.65 K
outcome_measure: solubility (mole fraction)
Give the figure by itself; no unit, no explanation.

Looking for the measured solubility (mole fraction) of "O=C(O)c1ccccc1" , can you help?
0.0449

----------
protocol_conditions: in m-xylene, 315.15 K
outcome_measure: solubility (mole fraction)

Looking for the measured solubility (mole fraction) of "O=C(O)c1ccccc1" , can you help?
0.129

----------
protocol_conditions: in m-xylene, 330.65 K
outcome_measure: solubility (mole fraction)
Give the figure by itself; no unit, no explanation.

Looking for the measured solubility (mole fraction) of "O=C(O)c1ccccc1" , can you help?
0.22

----------
protocol_conditions: in ethylene glycol, 324.15 K
outcome_measure: solubility (mole fraction)
Give the figure by itself; no unit, no explanation.

Looking for the measured solubility (mole fraction) of "O=C(O)c1ccccc1" , can you help?
0.155

----------
protocol_conditions: in decalin, 329.25 K
outcome_measure: solubility (mole fraction)
Give the figure by itself; no unit, no explanation.

Looking for the measured solubility (mole fraction) of "O=C(O)c1ccccc1" , can you help?
0.0589

----------
protocol_conditions: in decalin, 338.65 K
outcome_measure: solubility (mole fraction)

Looking for the measured solubility (mole fraction) of "O=C(O)c1ccccc1" , can you help?
0.103

----------
protocol_conditions: in m-xylene, 302.15 K
outcome_measure: solubility (mole fraction)

Looking for the measured solubility (mole fraction) of "O=C(O)c1ccccc1" , can you help?
0.0823

----------
protocol_conditions: in 2-(2-butoxyethoxy)ethanol, 321.15 K
outcome_measure: solubility (mole fraction)

Looking for the measured solubility (mole fraction) of "O=C(O)c1ccccc1" , can you help?
0.377

----------
protocol_conditions: in propionic acid, 308.15 K
outcome_measure: solubility (mole fraction)
Give the figure by itself; no unit, no explanation.

Looking for the measured solubility (mole fraction) of "O=C(O)c1ccccc1" , can you help?
0.213

----------
protocol_conditions: in m-xylene, 320.15 K
outcome_measure: solubility (mole fraction)

Looking for the measured solubility (mole fraction) of "O=C(O)c1ccccc1" , can you help?
0.154

----------
protocol_conditions: in 2-(2-butoxyethoxy)ethanol, 336.15 K
outcome_measure: solubility (mole fraction)

Looking for the measured solubility (mole fraction) of "O=C(O)c1ccccc1" , can you help?
0.472

----------
protocol_conditions: in diethylene glycol, 314.65 K
outcome_measure: solubility (mole fraction)
Give the figure by itself; no unit, no explanation.

Looking for the measured solubility (mole fraction) of "O=C(O)c1ccccc1" , can you help?
0.225

----------
protocol_conditions: in DMAc, 311.65 K
outcome_measure: solubility (mole fraction)
Give the figure by itself; no unit, no explanation.

Looking for the measured solubility (mole fraction) of "O=C(O)c1ccccc1" , can you help?
0.489

----------
protocol_conditions: in n-octane, 329.15 K
outcome_measure: solubility (mole fraction)
Give the figure by itself; no unit, no explanation.

Looking for the measured solubility (mole fraction) of "O=C(O)c1ccccc1" , can you help?
0.0448

----------
protocol_conditions: in DMAc, 320.65 K
outcome_measure: solubility (mole fraction)

Looking for the measured solubility (mole fraction) of "O=C(O)c1ccccc1" , can you help?
0.515

----------
protocol_conditions: in diethylene glycol, 309.35 K
outcome_measure: solubility (mole fraction)
Give the figure by itself; no unit, no explanation.

Looking for the measured solubility (mole fraction) of "O=C(O)c1ccccc1" , can you help?
0.183

----------
protocol_conditions: in propionic acid, 322.15 K
outcome_measure: solubility (mole fraction)

Looking for the measured solubility (mole fraction) of "O=C(O)c1ccccc1" , can you help?
0.271

----------
protocol_conditions: in DMAc, 324.15 K
outcome_measure: solubility (mole fraction)
Give the figure by itself; no unit, no explanation.

Looking for the measured solubility (mole fraction) of "O=C(O)c1ccccc1" , can you help?
0.529

----------
protocol_conditions: in cyclohexanone, 294.15 K
outcome_measure: solubility (mole fraction)
Give the figure by itself; no unit, no explanation.

Looking for the measured solubility (mole fraction) of "O=C(O)c1ccccc1" , can you help?
0.197

----------
protocol_conditions: in 2-(2-butoxyethoxy)ethanol, 329.65 K
outcome_measure: solubility (mole fraction)

Looking for the measured solubility (mole fraction) of "O=C(O)c1ccccc1" , can you help?
0.431

----------
protocol_conditions: in sulfolane, 333.65 K
outcome_measure: solubility (mole fraction)
Give the figure by itself; no unit, no explanation.

Looking for the measured solubility (mole fraction) of "O=C(O)c1ccccc1" , can you help?
0.245

----------
protocol_conditions: in propionic acid, 314.15 K
outcome_measure: solubility (mole fraction)
Give the figure by itself; no unit, no explanation.

Looking for the measured solubility (mole fraction) of "O=C(O)c1ccccc1" , can you help?
0.235

----------
protocol_conditions: in propionic acid, 291.15 K
outcome_measure: solubility (mole fraction)

Looking for the measured solubility (mole fraction) of "O=C(O)c1ccccc1" , can you help?
0.146

----------
protocol_conditions: in diethylene glycol, 294.15 K
outcome_measure: solubility (mole fraction)
Give the figure by itself; no unit, no explanation.

Looking for the measured solubility (mole fraction) of "O=C(O)c1ccccc1" , can you help?
0.0746

----------
protocol_conditions: in decalin, 301.15 K
outcome_measure: solubility (mole fraction)
Give the figure by itself; no unit, no explanation.

Looking for the measured solubility (mole fraction) of "O=C(O)c1ccccc1" , can you help?
0.0163

----------
protocol_conditions: in 2-(2-butoxyethoxy)ethanol, 334.15 K
outcome_measure: solubility (mole fraction)
Give the figure by itself; no unit, no explanation.

Looking for the measured solubility (mole fraction) of "O=C(O)c1ccccc1" , can you help?
0.458

----------
protocol_conditions: in sulfolane, 325.15 K
outcome_measure: solubility (mole fraction)
Give the figure by itself; no unit, no explanation.

Looking for the measured solubility (mole fraction) of "O=C(O)c1ccccc1" , can you help?
0.192

----------
protocol_conditions: in m-xylene, 296.15 K
outcome_measure: solubility (mole fraction)
Give the figure by itself; no unit, no explanation.

Looking for the measured solubility (mole fraction) of "O=C(O)c1ccccc1" , can you help?
0.0649

----------
protocol_conditions: in DMAc, 329.15 K
outcome_measure: solubility (mole fraction)
Give the figure by itself; no unit, no explanation.

Looking for the measured solubility (mole fraction) of "O=C(O)c1ccccc1" , can you help?
0.548
